- assay procedure: Accumulation of contrast agent in Colon 26 tumor, dye extraction and fluorescence
- Format: in vivo
- run parameters: BALB/c Slc-nu/nu, mouse, tumor tissue (Colon 26); Colon 26 tumor, intravenous, 13 nmol in terms of ICG, 24 hours; read-out: Tumor accumulation 1 day after administration
observable: tissue uptake at 24 h
Mention the unit after the number when you answer.

Recorded tissue uptake at 24 h for CC1(C)C(/C=C/C=C/C=C/C=C2/N(CCCCS(=O)(=O)[O-])c3ccc4ccccc4c3C2(C)C)=[N+](CCCCS(=O)(=O)[O-])c2ccc3ccccc3c21.[Na+] , please? 0.1 %ID/g

====

- assay procedure: Blood accumulation in Colon 26 tumor model mice
- Type: in vivo
- run parameters: BALB/c Slc-nu/nu, mouse, intravenous, 13 nmol in terms of ICG, read-out: Blood accumulation 1 day after administration
observable: tissue uptake at 1 day (%ID/g)
The reply should be a number in %ID/g, with the unit left off.

Recorded tissue uptake at 1 day for CC1(C)C(/C=C/C=C/C=C/C=C2/N(CCCCS(=O)(=O)[O-])c3ccc4ccccc4c3C2(C)C)=[N+](CCCCS(=O)(=O)[O-])c2ccc3ccccc3c21.[Na+] , please? 0.2
